The reported numbers originate from patent US5061794A.

- System: K. oxytoca GN10650
- ASSAY METHOD TEXT: in vitro antibacterial activity, agar plate dilution method (MIC)
- Format: cell-based
- CONDITION SUMMARY: Klebsiella oxytoca, GN10650, 16 h, read-out: Minimum Inhibitory Concentration (MIC), *K. oxytoca GN10650, lactamase-producing strain; 10^6 CFU/ml
MEASURED PROPERTY: MIC (µg/mL)
Write the answer as a number in µg/mL, unit excluded.

Request: Which MIC is reported for this molecule? CC(C)(O/N=C(\C(=O)N[C@@H]1C(=O)N2C(C(=O)O)=C(CSc3nc(-c4ccc(O)cc4)cs3)CS[C@H]12)c1csc(N)n1)C(=O)O [compound 12, reference compound]
Result: 1.56

Request: Which MIC is reported for this molecule? `Nc1nc(/C(=N/OCc2ccccc2CC(=O)O)C(=O)N[C@@H]2C(=O)N3C(C(=O)O)=C(CSc4nnc(-c5ccc(O)c(O)c5)o4)CS[C@H]23)cs1`
Result: 0.1

Request: Which MIC is reported for this molecule? `C=CCO/N=C(\C(=O)N[C@@H]1C(=O)N2C(C(=O)O)=C(CSc3nnc(-c4ccc(O)c(O)c4)o3)CS[C@H]12)c1csc(N)n1`
Result: 3.12

Request: Which MIC is reported for this molecule? CC(=O)Oc1ccc(-c2nc(SCC3=C(C(=O)O)N4C(=O)C(NC(=O)C(=NOC5(C(=O)O)CC5)c5csc(N)n5)C4SC3)sc2CC(=O)O)cc1OC(C)=O (stereo not drawn)
Result: 0.1

Request: Which MIC is reported for this molecule? C#CCON=C(C(=O)NC1C(=O)N2C(C(=O)O)=C(CSc3nc(C(=O)O)c(-c4ccc(O)c(O)c4)s3)CSC12)c1csc(N)n1 (stereo not drawn)
Result: 12.5

Request: Which MIC is reported for this molecule? `CO/N=C(\C(=O)N[C@@H]1C(=O)N2C(C(=O)O)=C(CSc3nnc(-c4ccc(O)c(O)c4)o3)CS[C@H]12)c1csc(N)n1`
Result: 0.39
